Origin of the recorded values: patent US20160136231A1

A collection of binders and their measured EC50, Arrestin, Agonist (RC50, uM)
Target: T1, mouse ChemR23, PathHunter β-Arrestin cell line (mouse, UniProt P97468 1-371)
T1 sequence (P97468 whole entry, looked up): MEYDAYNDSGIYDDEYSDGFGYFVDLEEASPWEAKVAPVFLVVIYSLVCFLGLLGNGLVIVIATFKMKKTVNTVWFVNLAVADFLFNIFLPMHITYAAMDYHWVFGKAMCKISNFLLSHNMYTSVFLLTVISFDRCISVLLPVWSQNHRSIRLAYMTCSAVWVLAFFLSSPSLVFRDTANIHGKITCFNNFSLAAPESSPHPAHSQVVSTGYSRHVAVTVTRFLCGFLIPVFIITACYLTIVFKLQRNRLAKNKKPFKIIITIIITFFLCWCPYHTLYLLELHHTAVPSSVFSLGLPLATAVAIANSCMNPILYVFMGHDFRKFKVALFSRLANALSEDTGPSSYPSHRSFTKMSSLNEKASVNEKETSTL
Test: cell-based or functional assay
Give just the number in µM; leave the unit off.

[[record]]
binder = "AGEDPHSFYFPGQFAF [human chemerin C16 peptide]"
recorded_endpoint = "EC50, Arrestin, Agonist (RC50, uM)"
display_unit = "µM"
observed_value = 0.0385


Now let's try a different one.
**Query** For AGEDPHSFYFPGQFAFS [human chemerin C17 peptide] , what is its reported EC50, Arrestin, Agonist (RC50, uM)?
**Result** 0.84
